Provenance of the data: PubChem BioAssay (NCI)

Tested on: PC-3 prostate
TEST SUMMARY: NCI-60 one-dose screen, 48 h (100 = growth as untreated, 0 = no growth, -100 = all killed)
CONDITION PARAMETERS: 10 µM unless noted
This is part of a sample that, as a whole, favours compounds with a hit. Of some 83,000 tested, about 20% had one in any assay.
ATTRIBUTE MEASURED: growth (%)
One number for each entry, in %.

Reference set, count: 6
>  <COMPOUND>
COc1cc(/C=C2\CN(C)C/C(=C\c3cc(CN4CCCC4)c(O)c(OC)c3)C2=O)cc(CN2CCCC2)c1O

>  <ATTRIBUTE MEASURED>
growth

>  <UNIT DESCRIPTOR>
%

>  <OBS VALUE>
76.8

$$$$
>  <COMPOUND>
COc1cc2nc(NC3CCCC3)nc(NC3CCN(C(C)C)CC3)c2cc1OC

>  <ATTRIBUTE MEASURED>
growth

>  <UNIT DESCRIPTOR>
%

>  <OBS VALUE>
71.1

$$$$
>  <COMPOUND>
CCN1C(=O)N(CC)C2C1NN=c1s/c(=C3\C(=O)N(C(C)C)c4ccccc43)c(=O)n12 (stereo not given)

>  <ATTRIBUTE MEASURED>
growth

>  <UNIT DESCRIPTOR>
%

>  <OBS VALUE>
25.8

$$$$
>  <COMPOUND>
CCN(CCO)CCNc1ccc(C)c2sc3cc(Cl)ccc3c(=O)c12

>  <ATTRIBUTE MEASURED>
growth

>  <UNIT DESCRIPTOR>
%

>  <OBS VALUE>
21.8

$$$$
>  <COMPOUND>
Nc1ccc(-c2nc3cc(Oc4ccc(Oc5ccc6[nH]c(-c7ccc(N)cc7)nc6c5)cc4)ccc3[nH]2)cc1

>  <ATTRIBUTE MEASURED>
growth

>  <UNIT DESCRIPTOR>
%

>  <OBS VALUE>
115

$$$$
>  <COMPOUND>
Cn1c(/C=C(\C#N)c2ccccc2)nc2c(N3CCOCC3)nc(Cl)nc21

>  <ATTRIBUTE MEASURED>
growth

>  <UNIT DESCRIPTOR>
%

>  <OBS VALUE>
-62.3

$$$$

For each of the items listed, what is its growth?
1. Cc1cc(Nc2ccc(OCc3ccccc3)cc2)nc2cc(O)ccc12
2. CSc1nc2c(c(=O)[nH]1)N=C1c3ccccc3C(=O)C1C(c1ccc(F)cc1)N2 (stereo not given)
3. COc1cc(C(=O)O/N=C(\N)Cc2cccc3ccccc23)cc(OC)c1OC
4. O=C(Nc1ccc(F)cc1F)c1cc(Cl)ccc1O

Given back:
1: 53.5; 2: 69.3; 3: 27.6; 4: 6.06

###

Test system: K-562 leukemia
TEST SUMMARY: NCI-60 one-dose screen, 48 h (100 = growth as untreated, 0 = no growth, -100 = all killed)
CONDITION PARAMETERS: 10 µM unless noted
Experimental: Cells are grown in 96 well plates and exposed to the test compound for 48 hours. Compounds are tested at a single concentration, which is 10^-5 M for most compounds. The reported endpoint is percent growth (GI% or GIPRCNT), where numbers from 0 - 100% represent growth inhibition, and numbers from -100% - 0 represent cell death. For example, a value of 40 represents 60% growth inhibition. A value of 0 means no net growth occurred over the course of the experiment. […]
This is part of a sample that, as a whole, favours compounds with a hit. Of some 83,000 tested, about 20% had one in any assay.
Assign growth to each entry below.
Numbers only, in %.

Observe how each entry below is paired with its result.
>  <MOLECULE>
COc1cc(OC)cc(N2C(=O)N(Cc3ccc(C(C)(C)C)cc3)c3ccccc3S2(=O)=O)c1

>  <growth (%)>
33.3

$$$$
>  <MOLECULE>
COc1cc(-c2c3c(c(Br)n2Cc2ccccc2)-c2nc(N)sc2CC3)cc(OC)c1OC

>  <growth (%)>
47.7

$$$$
>  <MOLECULE>
CCCSC1=NC2C(N(CC)C(=O)N2CC)N1/N=C/C=C/c1ccccc1[N+](=O)[O-] (stereo not given)

>  <growth (%)>
8.86

$$$$
>  <MOLECULE>
CCOC(=O)c1sc(-c2ccc(OS(=O)(=O)c3ccccc3[N+](=O)[O-])c(C=O)c2)nc1C

>  <growth (%)>
12.8

$$$$

Asked: Consider the molecule COc1cc(C(C)n2cc(-c3ccccc3)nn2)ccc1OC1CCCC1 (stereo not given) and give its measured growth.
Given back: 34
